Let's look at some binders and their measured kon.
TARGET DESC: T1, cynomolgus monkey PD-1-his protein (Acro biosystems, #PD-1-C5223) (cynomolgus monkey, UniProt B0LAJ3 25-170)
T1 construct: Bought protein; also called Cynomolgus PD-1; Cynomolgus PD1
T1 sequence (B0LAJ3 entry or part of it limits assumed): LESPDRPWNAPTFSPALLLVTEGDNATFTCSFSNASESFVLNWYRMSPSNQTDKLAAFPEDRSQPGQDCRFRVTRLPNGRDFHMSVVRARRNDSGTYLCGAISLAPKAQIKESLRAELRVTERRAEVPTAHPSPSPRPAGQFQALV
ASSAY PROCEDURE: SPR (Biacore T200), antibody captured, antigen flowed
Give the quantity in M⁻¹ s⁻¹, number only.

mouse anti-PD-1 monoclonal antibody 2G2 (antibody, mouse IgG1, kappa, V domains shown, Purified from hybridoma; Constant regions tied only generically to 'mouse antibodies'; also called Clone 2G2) VH: EVQLVESGGDLVKPGGSLKLSCTASGFTFSYYGMSWVRQTPDKRLEWVATISSGSSFTYSPDSVKGRFTISRDNAKNTLYLQMNSLKSEDTAIYYCTRREGIYDASWDYSMDYWGQGTSVTVSS VL: DVLMTQTPLSLPVSLGDQASISCRSSQSIIRSNGNTYLEWYLQKPGQSPKLLIYKVSNRFSGVPDRFSGSGSGTDFTLKISRVEADDLGLYYCFQGSHVPWTFGGGTKLEIKR = 140000

Turning now to a further binder:
Record summary for mouse anti-PD-1 monoclonal antibody C1F4 (antibody, mouse IgG1, kappa, V domains shown, Purified from hybridoma; Constant regions tied only generically to 'mouse antibodies') VH: QVQLQQSGAELVRPGVSVKISCKGSGYKFTDYAMHWVRQSHAKSLEWIGIISTYSGDVSFNQNFKGKATMTVDKSSSTAYMELARLTSEDSAIYYCSRLGITAGFAYWGQGTLVTVSA VL: DIVMTQSQKFMSTSVGDRVTITCKASQNVRTAVAWYQQKPGQSPKALIYLASNRHTGVPDRFTGSGSGTDFTLTISNVQSKDLADYFCLQHWNYPYTFGGGTKLEIKR : reported kon = 301000
